# target: UniProt Q08464
# Sequence (Q08464 29-570 limits assumed): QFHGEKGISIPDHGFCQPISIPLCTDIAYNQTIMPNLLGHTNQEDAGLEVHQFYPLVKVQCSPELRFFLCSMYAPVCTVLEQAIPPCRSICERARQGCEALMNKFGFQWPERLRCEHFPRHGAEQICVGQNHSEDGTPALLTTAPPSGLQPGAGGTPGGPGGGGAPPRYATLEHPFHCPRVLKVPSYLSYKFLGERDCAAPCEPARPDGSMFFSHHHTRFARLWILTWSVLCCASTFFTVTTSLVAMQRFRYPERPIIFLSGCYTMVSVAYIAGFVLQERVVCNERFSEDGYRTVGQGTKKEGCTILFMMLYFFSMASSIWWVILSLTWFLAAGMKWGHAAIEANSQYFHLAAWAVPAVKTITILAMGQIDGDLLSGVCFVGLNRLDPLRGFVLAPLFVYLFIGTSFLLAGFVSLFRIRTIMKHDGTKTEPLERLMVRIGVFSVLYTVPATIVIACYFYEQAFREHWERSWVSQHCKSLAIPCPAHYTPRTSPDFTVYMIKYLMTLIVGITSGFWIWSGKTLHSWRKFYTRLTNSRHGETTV
# procedure-summary: Antagonist activity at Wnt3a-stimulated rat frizzled-2 expressed in […] cells up to 10 uM incubated for 24 hrs by luciferase reporter gene assay
# Format: cell-based
# conditions: dose microM <=10, time 24.0 hrs
Calls of active or inactive are those of the source. No cut-off for these calls is given here. Where a SMILES comes first, the peptide text is derived from it.
outcome-measure: inhibition

compound="CSCC[C@H](NC(=O)CNC(=O)[C@H](CCC(=O)O)NC(=O)[C@H](CO)NC(=O)[C@@H](NC(=O)[C@H](CCCCN)NC(=O)[C@H](CC(N)=O)NC(=O)[C@H](CS)NC(C)=O)[C@@H](C)O)C(=O)N[C@@H](CC(=O)O)C(=O)NCC(=O)N[C@@H](CS)C(=O)N[C@@H](CCC(=O)O)C(=O)N[C@@H](C)C(N)=O (Ac-CNKTSEGMDGCEA-NH2)" outcome_measure=inhibition result=inactive
compound="CSCC[C@H](NC(=O)CNC(=O)[C@H](CCC(=O)O)NC(=O)[C@H](CO)NC(=O)[C@@H](NC(=O)[C@H](CCCCN)NC(=O)[C@H](CC(N)=O)NC(=O)[C@H](CS)NC(C)=O)[C@@H](C)O)C(=O)N[C@@H](CC(=O)O)C(=O)NCC(=O)N[C@@H](CS)C(=O)N[C@@H](C)C(=O)N[C@@H](CC(C)C)C(N)=O (Ac-CNKTSEGMDGCAL-NH2)" outcome_measure=inhibition result=inactive
compound="CSCC[C@H](NC(=O)CNC(=O)[C@H](CCC(=O)O)NC(=O)[C@H](CO)NC(=O)[C@@H](NC(=O)[C@H](C)NC(=O)[C@H](CC(N)=O)NC(=O)[C@H](CS)NC(C)=O)[C@@H](C)O)C(=O)N[C@@H](CC(=O)O)C(=O)NCC(=O)N[C@@H](CS)C(=O)N[C@@H](CCC(=O)O)C(=O)N[C@@H](CC(C)C)C(N)=O (Ac-CNATSEGMDGCEL-NH2)" outcome_measure=inhibition result=inactive

###

# target: Frizzled-1 (Homo sapiens) (UniProt Q9UP38)
# Sequence (Q9UP38 70-647 limits assumed): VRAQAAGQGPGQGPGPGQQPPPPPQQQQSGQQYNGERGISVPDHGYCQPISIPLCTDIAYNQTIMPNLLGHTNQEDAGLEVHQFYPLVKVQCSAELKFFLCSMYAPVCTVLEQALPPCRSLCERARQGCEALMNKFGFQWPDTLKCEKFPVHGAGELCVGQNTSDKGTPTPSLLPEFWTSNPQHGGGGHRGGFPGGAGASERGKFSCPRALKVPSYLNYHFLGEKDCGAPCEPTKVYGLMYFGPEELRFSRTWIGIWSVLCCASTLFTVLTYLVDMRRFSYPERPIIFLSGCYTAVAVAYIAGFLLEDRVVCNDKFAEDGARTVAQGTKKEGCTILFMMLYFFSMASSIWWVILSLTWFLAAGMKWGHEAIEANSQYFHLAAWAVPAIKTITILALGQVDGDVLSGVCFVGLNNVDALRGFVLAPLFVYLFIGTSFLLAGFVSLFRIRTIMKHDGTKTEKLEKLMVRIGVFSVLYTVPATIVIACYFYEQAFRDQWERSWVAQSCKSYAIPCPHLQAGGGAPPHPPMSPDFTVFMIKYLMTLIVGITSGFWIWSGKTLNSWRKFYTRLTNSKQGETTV
# procedure-summary: Antagonist activity at Wnt3a-stimulaed frizzled-1 (unknown origin) expressed in human HEK293superTOP flash cells at 1 nM incubated for 24 hrs by luciferase reporter gene assay (reference value: 0%)
# Assay type: functional, cell-based
# conditions: HEK293, filed as antagonist
Where a SMILES comes first, the peptide text is derived from it.
# key: entry, value: inhibition
The reply should contain only the number, in %.

See these solved cases before continuing.
compound="CSCC[C@H](NC(=O)CNC(=O)[C@H](CCC(=O)O)NC(=O)[C@H](CO)NC(=O)[C@@H](NC(=O)[C@H](CCCCN)NC(=O)[C@H](CC(N)=O)NC(=O)[C@H](CS)NC(C)=O)[C@@H](C)O)C(=O)N[C@@H](CC(=O)O)C(=O)N[C@@H](C)C(=O)N[C@@H](CS)C(=O)N[C@@H](CCC(=O)O)C(=O)N[C@@H](CC(C)C)C(N)=O (Ac-CNKTSEGMDACEL-NH2)" result_number=69.9
compound="CC[C@H](C)[C@H](NC(=O)CNC(=O)[C@H](Cc1cnc[nH]1)NC(=O)[C@H](CO)NC(=O)[C@H](CO)NC(=O)[C@@H](NC(=O)[C@H](CC(N)=O)NC(=O)[C@@H](N)CS)C(C)C)C(=O)N[C@@H](CC(=O)O)C(=O)NCC(=O)N[C@@H](CS)C(=O)N[C@@H](CC(=O)O)C(=O)N[C@@H](CC(C)C)C(=O)O (H-CNVSSHGIDGCDL-OH)" result_number=45.3

Could you now consider this next compound?
Task item: Param item = CSCC[C@H](NC(=O)CNC(=O)[C@H](CCC(=O)O)NC(=O)[C@H](CO)NC(=O)[C@@H](NC(=O)[C@H](C)NC(=O)[C@H](CC(N)=O)NC(=O)[C@H](CS)NC(C)=O)[C@@H](C)O)C(=O)N[C@@H](CC(=O)O)C(=O)NCC(=O)N[C@@H](CS)C(=O)N[C@@H](CCC(=O)O)C(=O)N[C@@H](CC(C)C)C(N)=O (Ac-CNATSEGMDGCEL-NH2) ; retrieve measured inhibition.
Reply: 70.8

###

# target: Frizzled-2 (Homo sapiens) (UniProt Q14332)
# Sequence (Q14332 24-565 limits assumed): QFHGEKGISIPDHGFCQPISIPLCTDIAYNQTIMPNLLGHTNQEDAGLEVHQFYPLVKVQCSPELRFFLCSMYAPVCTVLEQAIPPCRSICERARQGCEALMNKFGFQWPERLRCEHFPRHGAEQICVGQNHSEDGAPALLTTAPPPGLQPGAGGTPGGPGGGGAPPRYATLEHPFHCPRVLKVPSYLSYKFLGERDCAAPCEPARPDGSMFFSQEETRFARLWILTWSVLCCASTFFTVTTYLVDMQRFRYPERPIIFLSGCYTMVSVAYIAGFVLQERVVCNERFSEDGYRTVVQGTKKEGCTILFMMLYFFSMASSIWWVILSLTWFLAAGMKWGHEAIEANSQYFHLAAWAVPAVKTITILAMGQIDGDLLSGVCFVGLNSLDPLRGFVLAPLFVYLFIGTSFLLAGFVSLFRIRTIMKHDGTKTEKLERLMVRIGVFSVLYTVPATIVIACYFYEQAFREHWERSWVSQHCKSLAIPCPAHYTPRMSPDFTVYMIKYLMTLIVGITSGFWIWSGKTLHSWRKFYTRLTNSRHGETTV
# procedure-summary: Antagonist activity at Wnt3a-stimulaed frizzled-2 (unknown origin) expressed in human HEK293superTOP flash cells at 1 nM incubated for 24 hrs by luciferase reporter gene assay (reference value: 0%)
# Assay type: functional, cell-based
# conditions: HEK293, filed as antagonist
Where a SMILES comes first, the peptide text is derived from it.
# key: entry, value: inhibition
Your answer should be a number followed by the unit of measure.

molecule="CSCC[C@H](NC(=O)CNC(=O)[C@H](CCC(=O)O)NC(=O)[C@H](CO)NC(=O)[C@@H](NC(=O)[C@H](CCCCN)NC(=O)[C@H](CC(N)=O)NC(=O)[C@H](CS)NC(C)=O)[C@@H](C)O)C(=O)N[C@@H](CC(=O)O)C(=O)N[C@@H](C)C(=O)N[C@@H](CS)C(=O)N[C@@H](CCC(=O)O)C(=O)N[C@@H](CC(C)C)C(N)=O (Ac-CNKTSEGMDACEL-NH2)" outcome_measure=inhibition result=83.3%

Could you now consider this next molecule?
Task item: Param item = CC(=O)N[C@@H](CS)C(=O)N[C@@H](CC(N)=O)C(=O)N[C@@H](CCCCN)C(=O)N[C@H](C(=O)N[C@@H](CO)C(=O)N[C@@H](CCC(=O)O)C(=O)NCC(=O)N[C@@H](C)C(=O)N[C@@H](CC(=O)O)C(=O)NCC(=O)N[C@@H](CS)C(=O)N[C@@H](CCC(=O)O)C(=O)N[C@@H](CC(C)C)C(N)=O)[C@@H](C)O (Ac-CNKTSEGADGCEL-NH2) ; retrieve measured inhibition.
Reply: 85%

###

# target: UniProt Q9UP38
# procedure-summary: Antagonist activity at Wnt3a-stimulated frizzled-1 (unknown origin) expressed in human HEK293superTOP flash cells at 10 nM incubated for 24 hrs by luciferase reporter gene assay
# Assay type: functional, cell-based
# conditions: HEK293
Calls of active or inactive are those of the source. The rule behind the calls is not given here. Where a SMILES comes first, the peptide text is derived from it.
outcome-measure: inhibition

compound="CSCC[C@H](NC(=O)CNC(=O)[C@H](CCC(=O)O)NC(=O)[C@H](CO)NC(=O)[C@@H](NC(=O)[C@H](CCCCN)NC(=O)[C@H](CC(N)=O)NC(=O)[C@H](CS)NC(C)=O)[C@@H](C)O)C(=O)N[C@@H](CC(=O)O)C(=O)NCC(=O)N[C@@H](CS)C(=O)N[C@@H](CCC(=O)O)C(=O)N[C@@H](C)C(N)=O (Ac-CNKTSEGMDGCEA-NH2)" result=inactive
compound="CSCC[C@H](NC(=O)CNC(=O)[C@H](CCC(=O)O)NC(=O)[C@H](CO)NC(=O)[C@@H](NC(=O)[C@H](CCCCN)NC(=O)[C@H](C)NC(=O)[C@H](CS)NC(C)=O)[C@@H](C)O)C(=O)N[C@@H](CC(=O)O)C(=O)NCC(=O)N[C@@H](CS)C(=O)N[C@@H](CCC(=O)O)C(=O)N[C@@H](CC(C)C)C(N)=O (Ac-CAKTSEGMDGCEL-NH2)" result=inactive
compound="CSCC[C@H](NC(=O)[C@H](C)NC(=O)[C@H](CCC(=O)O)NC(=O)[C@H](CO)NC(=O)[C@@H](NC(=O)[C@H](CCCCN)NC(=O)[C@H](CC(N)=O)NC(=O)[C@H](CS)NC(C)=O)[C@@H](C)O)C(=O)N[C@@H](CC(=O)O)C(=O)NCC(=O)N[C@@H](CS)C(=O)N[C@@H](CCC(=O)O)C(=O)N[C@@H](CC(C)C)C(N)=O (Ac-CNKTSEAMDGCEL-NH2)" result=inactive

###

# target: Frizzled-1 (Homo sapiens) (UniProt Q9UP38)
# procedure-summary: Antagonist activity at Wnt3a-stimulaed frizzled-1 (unknown origin) expressed in human HEK293superTOP flash cells at 1 nM incubated for 24 hrs by luciferase reporter gene assay (reference value: 0%)
# Format: functional, cell-based
# conditions: HEK293, filed as antagonist
Where a SMILES comes first, the peptide text is derived from it.
outcome-measure: inhibition (%)
The reply should contain only the number, in %.

compound="CSCC[C@H](NC(=O)CNC(=O)[C@H](CCC(=O)O)NC(=O)[C@H](CO)NC(=O)[C@@H](NC(=O)[C@H](CCCCN)NC(=O)[C@H](CC(N)=O)NC(=O)[C@H](CS)NC(C)=O)[C@@H](C)O)C(=O)N[C@@H](CC(=O)O)C(=O)NCC(=O)N[C@@H](CS)C(=O)N[C@@H](C)C(=O)N[C@@H](CC(C)C)C(N)=O (Ac-CNKTSEGMDGCAL-NH2)" result_number=65.9
compound="CSCC[C@H](NC(=O)CNC(=O)[C@H](CCC(=O)O)NC(=O)[C@H](CO)NC(=O)[C@@H](NC(=O)[C@H](CCCCN)NC(=O)[C@H](CC(N)=O)NC(=O)[C@H](CS)NC(C)=O)[C@@H](C)O)C(=O)N[C@@H](CC(=O)O)C(=O)NCC(=O)N[C@@H](CS)C(=O)N[C@@H](CCC(=O)O)C(=O)N[C@@H](C)C(N)=O (Ac-CNKTSEGMDGCEA-NH2)" result_number=65.9
compound="CSCC[C@H](NC(=O)CNC(=O)[C@H](CCC(=O)O)NC(=O)[C@H](CO)NC(=O)[C@@H](NC(=O)[C@H](CCCCN)NC(=O)[C@H](CC(N)=O)NC(=O)[C@H](CS)NC(C)=O)[C@@H](C)O)C(=O)N[C@@H](CC(=O)O)C(=O)NCC(=O)N[C@@H](CS)C(=O)N[C@@H](C)C(=O)N[C@@H](C)C(N)=O (Ac-CNKTSEGMDGCAA-NH2)" result_number=66.8

Task item: Param item = CSCC[C@H](NC(=O)CNC(=O)[C@H](CCC(=O)O)NC(=O)[C@H](CO)NC(=O)[C@@H](NC(=O)[C@H](CCCCN)NC(=O)[C@H](CC(N)=O)NC(=O)[C@H](CS)NC(C)=O)[C@@H](C)O)C(=O)N[C@@H](C)C(=O)NCC(=O)N[C@@H](CS)C(=O)N[C@@H](CCC(=O)O)C(=O)N[C@@H](CC(C)C)C(N)=O (Ac-CNKTSEGMAGCEL-NH2) ; retrieve measured inhibition.
Reply: 40.5
